# key: entry, value: IC50
molecular target: NUAK2 (h) (Homo sapiens); construct: This assay was done radiometrically using full-length, recombinant enzyme; experiment: NUAK2 enzymatic assay (radiometric, Eurofins); conditions: radiometric, full-length recombinant enzyme
Sequence (Q9H093 whole entry): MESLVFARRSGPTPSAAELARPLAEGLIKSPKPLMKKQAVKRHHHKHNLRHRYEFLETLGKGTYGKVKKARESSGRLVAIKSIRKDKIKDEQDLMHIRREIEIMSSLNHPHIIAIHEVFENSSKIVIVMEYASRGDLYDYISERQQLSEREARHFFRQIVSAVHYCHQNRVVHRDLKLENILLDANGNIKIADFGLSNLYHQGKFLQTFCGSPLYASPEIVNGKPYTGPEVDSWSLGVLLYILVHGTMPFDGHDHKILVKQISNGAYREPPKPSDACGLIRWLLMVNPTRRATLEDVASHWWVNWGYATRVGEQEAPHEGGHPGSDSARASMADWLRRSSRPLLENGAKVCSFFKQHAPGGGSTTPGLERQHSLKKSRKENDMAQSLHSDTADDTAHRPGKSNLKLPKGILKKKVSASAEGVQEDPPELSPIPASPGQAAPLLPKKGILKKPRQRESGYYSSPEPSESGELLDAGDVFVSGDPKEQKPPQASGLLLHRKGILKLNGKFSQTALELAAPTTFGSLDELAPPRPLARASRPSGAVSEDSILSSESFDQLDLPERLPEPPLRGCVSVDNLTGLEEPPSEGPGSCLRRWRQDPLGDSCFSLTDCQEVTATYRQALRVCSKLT

Find the recorded IC50 belonging to NC(=O)c1sccc1Nc1nc(Nc2ccc(N3CCN(CC(F)(F)F)CC3)cc2OC(F)F)ncc1Cl [Compound I-33] and report it. 101 to 1000 nM

I would be grateful if you could share the reported IC50 for Cc1cnc(Nc2ccc(N3CCN(C(C)C)CC3)cc2OC(F)F)nc1Nc1ccsc1C(N)=O [Compound I-17] . 11 to 100 nM

Field request: IC50 | item: CN1C[C@H]2C[C@@H]1CN2c1ccc(Nc2ncc(Cl)c(Nc3sccc3C(N)=O)n2)c(OC(F)F)c1 [Compound I-18] 0.1 to 10 nM
